Target: furin, P09958;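 note: purified furin at 1:10 enzyme:substrate in 50 mM HEPES pH 7.5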
Sequence (P09958 whole entry): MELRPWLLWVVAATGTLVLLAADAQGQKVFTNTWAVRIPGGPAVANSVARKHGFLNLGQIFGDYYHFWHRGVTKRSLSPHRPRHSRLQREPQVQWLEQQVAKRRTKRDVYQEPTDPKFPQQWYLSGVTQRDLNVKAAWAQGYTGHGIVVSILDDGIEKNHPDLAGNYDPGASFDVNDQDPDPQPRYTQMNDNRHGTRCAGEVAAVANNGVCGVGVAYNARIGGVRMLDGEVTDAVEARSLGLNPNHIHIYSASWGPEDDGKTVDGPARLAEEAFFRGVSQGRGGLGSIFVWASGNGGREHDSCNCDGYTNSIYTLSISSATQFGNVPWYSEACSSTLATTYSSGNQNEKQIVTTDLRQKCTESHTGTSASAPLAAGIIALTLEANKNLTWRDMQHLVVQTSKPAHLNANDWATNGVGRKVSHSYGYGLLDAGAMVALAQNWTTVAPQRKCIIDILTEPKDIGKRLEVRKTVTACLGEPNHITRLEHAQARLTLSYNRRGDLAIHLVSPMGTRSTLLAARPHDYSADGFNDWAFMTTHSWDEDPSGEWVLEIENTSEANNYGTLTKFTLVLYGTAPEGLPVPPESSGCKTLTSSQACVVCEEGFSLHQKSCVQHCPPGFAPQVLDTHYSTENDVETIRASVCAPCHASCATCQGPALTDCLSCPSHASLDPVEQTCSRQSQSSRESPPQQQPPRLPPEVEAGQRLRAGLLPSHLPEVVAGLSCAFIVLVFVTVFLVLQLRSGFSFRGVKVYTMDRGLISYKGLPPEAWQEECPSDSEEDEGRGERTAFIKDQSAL
Assay: furin cleavage Z-score vs untreated control; higher = more cleavage, active = 3.5 or more, inactive = 1 or less, 8 variable residues between constant flanks
Details: 30 min
Some of the results follow. The true hit rate is not given.
Measurement type: furin cleavage Z-score

>  <Sequence entry>
CASKKRKKKHAGNASASA [FS-720]

>  <Measurement type>
furin cleavage Z-score

>  <Test value>
1.79

$$$$
>  <Sequence entry>
CAREFRIIFDAGNASASA [FS-2002]

>  <Measurement type>
furin cleavage Z-score

>  <Test value>
-0.343

$$$$
>  <Sequence entry>
CAMGFSYDTRAGNASASA [HC1478]

>  <Measurement type>
furin cleavage Z-score

>  <Test value>
-0.421

$$$$
>  <Sequence entry>
CAVLSRRKRHAGNASASA [FS-1430]

>  <Measurement type>
furin cleavage Z-score

>  <Test value>
9.48

$$$$

Just for reference, the supplement of paper PMC3545927 is where these values come from.
